System: HT-29
Test: Cytotoxicity against human HT-29 colon cell line.
Assay type: functional
Details: read-out: ED50 (the source's name)
PROPERTY_MEASURED: EC50 (nM)
Please respond with the number in nM and leave the unit unwritten.

These solved cases illustrate the format of a correct answer.
[
  {
    "COMPOUND": "CCc1ccc(CCc2cc(OC)c(OC)c(OC)c2)cc1",
    "TGT": "HT-29",
    "EC50 [nM]": 16
  },
  {
    "COMPOUND": "COc1cc(CCc2ccc(OCCN(C)C)cc2)cc(OC)c1OC",
    "TGT": "HT-29",
    "EC50 [nM]": 9800
  },
  {
    "COMPOUND": "CCN(CC)CCOC(=O)/C(=C/c1ccc(OC)cc1)c1cc(OC)c(OC)c(OC)c1",
    "TGT": "HT-29",
    "EC50 [nM]": 2800
  },
  {
    "COMPOUND": "COc1ccc(CC2NCCc3c2cc(OC)c(OC)c3OC)cc1 (stereo not drawn)",
    "TGT": "HT-29",
    "EC50 [nM]": 20200
  },
  {
    "COMPOUND": "COc1cccc(/C=C(/C(=O)O)c2cc(OC)c(OC)c(OC)c2)c1",
    "TGT": "HT-29",
    "EC50 [nM]": 120
  }
]

## Input Respond only with EC50 recorded for COc1cc(/C=C\c2ccc(C(C)(C)C)cc2)cc(OC)c1OC
## Output 880

## Input Input COc1cc(/C=C\c2ccc(SC)cc2)cc(OC)c1OC , output reported EC50.
## Output 0.0018

## Input Quickly give me recorded EC50 for COc1ccc2ccc3cc(OC)c(OC)c(OC)c3c2c1
## Output 1100

## Input Provide one value: measured EC50 of COc1cccc2c1C(=O)c1c(O)c3c(c(O)c1C2=O)C[C@@](O)(C(=O)CO)C[C@@H]3O[C@H]1C[C@H](N)[C@H](O)[C@H](C)O1
## Output 55

## Input Give the measured EC50 for CCNC(=O)/C(=C/c1ccc(OC)cc1)c1cc(OC)c(OC)c(OC)c1
## Output 1800

## Input Entry COc1ccc(C(O)c2cc(OC)c(OC)c(OC)c2)cc1 (stereo not drawn) needs its EC50 filled in; supply it.
## Output 1200

## Input Return EC50 (reported value) for this compound: COc1cc(CCc2ccc(C)cc2)cc(OC)c1OC
## Output 100
